Source: paper PMC5540273

test system: EPHA3; details: concentration: 1 μM,replicates: in singlicate; n = 1;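 further: KINOMEscan kinase panel screen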
%Inh values for the compounds below.
State the answer as a number, implicitly in %.

| smiles-repr | reading-unit | %Inh |
| --- | --- | --- |
| NC(=O)Nc1sc(-c2ccc(F)cc2)cc1C(N)=O | % | 0 |
| Cc1cccc(-c2nc(Nc3ccncc3)c3sccc3n2)n1 | % | 26 |
| COc1cccc(C2=C(Nc3cccc(Cl)c3)C(=O)NC2=O)c1 | % | 0 |

Returns the measured %Inh for the input compound. Input: "Cl.Nc1n[nH]c2cc(-c3ccccn3)ccc12" 0

Returns the measured %Inh for the input compound. Input: "COc1cccc(OC)c1C(=O)Nc1cccc(-c2nn3ccccc3c2-c2ccnc(Nc3cccc(F)c3)n2)c1" 0

Returns the measured %Inh for the input compound. Input: "Cn1ccc2ncnc(Oc3ccc(NC(=O)Nc4cncc(C(F)(F)F)c4)c(Cl)c3)c21" 92.5

Returns the measured %Inh for the input compound. Input: "CCOC(=O)N1CCC(n2cnc(-c3ccc(F)cc3)c2-c2ccnc(N)n2)CC1" 14

Returns the measured %Inh for the input compound. Input: "C[C@@H]1CNc2c(sc3ccc4nc(-c5ccc(O)cc5)ccc4c23)C(=O)N1" 14

Returns the measured %Inh for the input compound. Input: "Nc1nccc(-c2ccc3c(N)n[nH]c3c2)n1" 0
